Measured values drawn from patent US12202805B2 for this set.

# ASSAY PROCEDURE: E-2.3 inhalative, oral and intravenous single doses in healthy male subjects: plasma concentrations and lung deposition
# Type: in vivo, human
# CONDITION CONTEXT: male, human, plasma, iv, 100 μg, healthy male subjects, 100 μg IV infusion over 2 h, N = 15; 2.5 h after dose; read-out: Geometric mean of plasma concentrations
REPORTED PROPERTY: concentration at 2.5 h (ng/mL)
Give bare numbers, in ng/mL.

Input: Please give measured concentration at 2.5 h of the following entry: `O=C(O)c1ccc(CCN(CCc2ccccc2OCc2ccc(-c3ccc(C(F)(F)F)cc3)cc2Cl)[C@H]2CCCc3nc(C(=O)O)ccc32)cc1`
Output: 0.559

====

# ASSAY PROCEDURE: E-2.3 inhalative, oral and intravenous single doses in healthy male subjects: plasma concentrations and lung deposition
# Assay type: in vivo, human
# CONDITION CONTEXT: male, human, plasma, inhaled, 1000 μg, healthy male subjects, single 1000 μg inhale, N = 16; 3 h after dose; read-out: Geometric mean of plasma concentrations
REPORTED PROPERTY: concentration at 3 h

Input: Please give measured concentration at 3 h of the following entry: `O=C(O)c1ccc(CCN(CCc2ccccc2OCc2ccc(-c3ccc(C(F)(F)F)cc3)cc2Cl)[C@H]2CCCc3nc(C(=O)O)ccc32)cc1`
Output: 1.07 ng/mL

====

# ASSAY PROCEDURE: E-2.3 inhalative, oral and intravenous single doses in healthy male subjects: plasma concentrations and lung deposition
# Assay type: in vivo, human
# CONDITION CONTEXT: male, human, plasma, inhaled, 1000 μg, healthy male subjects, single 1000 μg inhale + Charcoal Block, N = 16; 28 h after dose; read-out: Geometric mean of plasma concentrations
REPORTED PROPERTY: concentration at 28 h (ng/mL)
Give bare numbers, in ng/mL.

Input: Please give measured concentration at 28 h of the following entry: `O=C(O)c1ccc(CCN(CCc2ccccc2OCc2ccc(-c3ccc(C(F)(F)F)cc3)cc2Cl)[C@H]2CCCc3nc(C(=O)O)ccc32)cc1`
Output: 0.0761

====

# ASSAY PROCEDURE: E-2.3 inhalative, oral and intravenous single doses in healthy male subjects: plasma concentrations and lung deposition
# Format: in vivo, human
# CONDITION CONTEXT: male, human, plasma, inhaled, 1000 μg, healthy male subjects, single 1000 μg inhale, N = 16; 2 h after dose; read-out: Geometric mean of plasma concentrations
# Description: E-2.3 Inhalative, Oral and Intravenous Administration of Single Doses of sGC an Activator in Healthy Male Subjects—Lung Deposition Healthy white male subjects, aged 18 to 45 years with a body mass index (BMI) above/equal 18.5 and below/equal 29.9 kg/m^2 were treated in a clinical phase I study with a single inhaled dose of 1000 μg (nominal dose), a single inhaled dose of 1000 μg (nominal dose)+charcoal block, a single oral dose of 1000 μg and a single infusion over 2 h of 100 μg of example 4. […]
REPORTED PROPERTY: concentration at 2 h (ng/mL)
Give bare numbers, in ng/mL.

Input: Please give measured concentration at 2 h of the following entry: O=C(O)c1ccc(CCN(CCc2ccccc2OCc2ccc(-c3ccc(C(F)(F)F)cc3)cc2Cl)[C@H]2CCCc3nc(C(=O)O)ccc32)cc1 [example 4]
Output: 1.2

====

# ASSAY PROCEDURE: E-2.3 inhalative, oral and intravenous single doses in healthy male subjects: plasma concentrations and lung deposition
# Type: in vivo, human
# CONDITION CONTEXT: male, human, plasma, iv, 100 μg, healthy male subjects, 100 μg IV infusion over 2 h, N = 15; 2 h after dose; read-out: Geometric mean of plasma concentrations
REPORTED PROPERTY: concentration at 2 h (ng/mL)
Answers are plain numbers, in ng/mL.

Input: Please give measured concentration at 2 h of the following entry: O=C(O)c1ccc(CCN(CCc2ccccc2OCc2ccc(-c3ccc(C(F)(F)F)cc3)cc2Cl)[C@H]2CCCc3nc(C(=O)O)ccc32)cc1 [example 4]
Output: 3.07
